experimental.protocol: qHTS for Inhibitors of the Functional Ribonucleoprotein Complex (vRNP) of Lassa (LASV) Arenavirus: Viability assay - alamar blue signal for LASV Primary Screen (AID 1347083); also: nearly all actives have a fitted effect of over 80% in size
run.parameters: cell viability, alamar blue fluorescence (LASV minigenome counter-screen); series mostly up to 57.5 µM
Results filed as inconclusive are left out. The source made the active and inactive calls. Calls follow the shape of the full dose curve; tested in HEK293 reporter line.
One label from this list, please: 1.0 = active, 0.0 = inactive

- compound: "Cc1ccc(S(=O)(=O)Nc2nc3ccccc3nc2Nc2ccc3nsnc3c2)cc1"
  label: 1.0

Incoming: I'd appreciate the recorded outcome for `O=C(c1cncc(Br)c1)N1CCC(N2CCCC2)CC1` from this test.
Outgoing: 0.0

Incoming: I'd appreciate the recorded outcome for `C[C@@H](O)[C@H]1O[C@]2(C)CCC[C@H]1O2` from this test.
Outgoing: 0.0

Incoming: I'd appreciate the recorded outcome for `CC[C@@]1(O)C[C@H](O[C@H]2C[C@H](N(C)C)[C@H](O[C@H]3C[C@H](O)[C@H](O[C@H]4CCC(=O)[C@H](C)O4)[C@H](C)O3)[C@H](C)O2)c2c(cc3c(c2O)C(=O)c2c(O)cccc2C3=O)[C@@H]1C(=O)OC` from this test.
Outgoing: 1.0
